Experiment: Inhibition of KPC-2 (unknown origin) expressed in Escherichia coli BL21 DE3 assessed as K2/Ki ratio using nitrocefin as substrate by spectrophotometry
Use 1000 M⁻¹ s⁻¹ as the dividing line for Ratio, with the line itself on the Satisfied side and lower values as Not satisfied.

compound	label-class
O=C1N2C[C@@H](CC[C@H]2Cn2ccnn2)N1OS(=O)(=O)[O-].[Na+]	Not satisfied
NC(=O)[C@@H]1CC[C@@H]2CN1C(=O)N2OS(=O)(=O)[O-].[Na+] [AVIBACTAM SODIUM]	Satisfied
COCc1cn(C[C@@H]2CC[C@@H]3CN2C(=O)N3OS(=O)(=O)[O-])nn1.[Na+]	Not satisfied
CC(C)(C)OC(=O)NCCC(=O)Nc1ccc(-c2cn(C[C@@H]3CC[C@@H]4CN3C(=O)N4OS(=O)(=O)[O-])nn2)cc1.[Na+]	Satisfied
O=C(NC1CCNCC1)[C@@H]1CC[C@@H]2CN1C(=O)N2OS(=O)(=O)[O-].[Na+]	Satisfied
CN(C)Cc1cn(C[C@@H]2CC[C@@H]3CN2C(=O)N3OS(=O)(=O)[O-])nn1.[Na+]	Not satisfied
NCCC(=O)Nc1ccc(-c2cn(C[C@@H]3CC[C@@H]4CN3C(=O)N4OS(=O)(=O)O)nn2)cc1.O=C(O)C(F)(F)F	Not satisfied
O=C1N2C[C@@H](CC[C@H]2Cn2cc(-c3cccnc3)nn2)N1OS(=O)(=O)[O-].[Na+]	Not satisfied

---

Assay: Inhibition of TEM1 (unknown origin) expressed in Escherichia coli BL21 DE3 assessed as K2/Ki ratio using nitrocefin as substrate by spectrophotometry
Hi, to clarify the labels: Satisfied covers Ratio from 2000 M⁻¹ s⁻¹ upward, Not satisfied covers anything below 2000 M⁻¹ s⁻¹.

structure	label-class
O=C1N2C[C@@H](CC[C@H]2Cn2ccnn2)N1OS(=O)(=O)[O-].[Na+]	Not satisfied
O=C1N2C[C@@H](CC[C@H]2Cn2cc(-c3cccnc3)nn2)N1OS(=O)(=O)[O-].[Na+]	Not satisfied
O=C(O)C(F)(F)F.O=C1N2C[C@@H](CC[C@H]2Cn2cc(C3CCNCC3)nn2)N1OS(=O)(=O)O	Satisfied
CC(C)(C)OC(=O)N1CCC(c2cn(C[C@@H]3CC[C@@H]4CN3C(=O)N4OS(=O)(=O)[O-])nn2)CC1.[Na+]	Not satisfied
O=C(NC1CCNCC1)[C@@H]1CC[C@@H]2CN1C(=O)N2OS(=O)(=O)[O-].[Na+]	Satisfied

---

Test system: Escherichia coli
Assay: Antibacterial activity against Escherichia coli Top10 harboring AmpC assessed as cefotaxime MIC by CLSI protocol based method (reference value: 256 ug/ml)
Type: functional
Each entry below carries its reported MIC.

molecule	target-under-test	MIC, mg/L
CC(C)(C)OC(=O)NCc1cn(C[C@@H]2CC[C@@H]3CN2C(=O)N3OS(=O)(=O)[O-])nn1.[Na+]	Escherichia coli	128
O=C1N2C[C@@H](CC[C@H]2Cn2cc(-c3cccnc3)nn2)N1OS(=O)(=O)[O-].[Na+]	Escherichia coli	128
O=C(NC1CCNCC1)[C@@H]1CC[C@@H]2CN1C(=O)N2OS(=O)(=O)[O-].[Na+]	Escherichia coli	0.25
C[Si](C)(C)c1cn(C[C@@H]2CC[C@@H]3CN2C(=O)N3OS(=O)(=O)[O-])nn1.[Na+]	Escherichia coli	64
CC(C)(C)OC(=O)N1CCC(c2cn(C[C@@H]3CC[C@@H]4CN3C(=O)N4OS(=O)(=O)[O-])nn2)CC1.[Na+]	Escherichia coli	128
O=C1N2C[C@@H](CC[C@H]2Cn2cc(-c3ccccc3)nn2)N1OS(=O)(=O)[O-].[Na+]	Escherichia coli	128
COCc1cn(C[C@@H]2CC[C@@H]3CN2C(=O)N3OS(=O)(=O)[O-])nn1.[Na+]	Escherichia coli	128
O=C1N2C[C@@H](CC[C@H]2Cn2nccn2)N1OS(=O)(=O)[O-].[Na+]	Escherichia coli	32
NC(=O)[C@@H]1CC[C@@H]2CN1C(=O)N2OS(=O)(=O)[O-].[Na+] [AVIBACTAM SODIUM]	Escherichia coli	1
O=C(O)CCc1cn(C[C@@H]2CC[C@@H]3CN2C(=O)N3OS(=O)(=O)[O-])nn1.[Na+]	Escherichia coli	64
